Assay Method Text: Stability in human plasma assessed as parent compound remaining measured at 60 mins by LC-MS/MS analysis
Assay type: ADME, cell-free
Run Conditions: read-out: Stability
Quantity: remaining at 1 h

Fill in: remaining at 1 h of CC(C)(C)[C@H](NC(=O)c1cc2cc(C(F)(F)P(=O)(O)O)ccc2s1)C(=O)N1C[C@@H](OCCCCCC#Cc2cccc3c2CN(C2CCC(=O)NC2=O)C3=O)C[C@H]1C(=O)N1CCO[C@H](c2ccccc2)C1 (stereo partly specified) is ___ 94%

* * *

Assay Method Text: Stability in mouse plasma assessed as half life measured upto 60 mins by LC-MS/MS analysis
Format: ADME, cell-free
Quantity: half-life

Fill in: half-life of CC(C)(C)[C@H](NC(=O)c1cc2cc(C(F)(F)P(=O)(O)O)ccc2s1)C(=O)N1C[C@@H](OCCCCCC#Cc2cccc3c2CN(C2CCC(=O)NC2=O)C3=O)C[C@H]1C(=O)N1CCO[C@H](c2ccccc2)C1 (stereo partly specified) is ___ > 2 h
